Values compiled from patent US10364256B2.

Below, each entry is listed alongside its reported pIC50.
# system: Keap1 Kelch domain (321-609) / TAMRA-labeled 16mer NRF2 peptide (ETGE motif) (Homo sapiens, UniProt Q14145)
# Construct: the Kelch domain (321-609) of Keap1 is used
# Sequence (Q14145 321-609): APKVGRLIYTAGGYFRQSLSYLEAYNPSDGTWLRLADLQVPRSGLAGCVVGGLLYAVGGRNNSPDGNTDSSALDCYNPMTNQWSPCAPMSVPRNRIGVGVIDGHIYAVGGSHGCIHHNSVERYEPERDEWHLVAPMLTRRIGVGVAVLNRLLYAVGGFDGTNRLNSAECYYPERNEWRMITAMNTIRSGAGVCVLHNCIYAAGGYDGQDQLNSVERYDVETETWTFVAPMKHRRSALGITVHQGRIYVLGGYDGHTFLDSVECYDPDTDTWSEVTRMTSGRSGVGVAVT
# protocol summary: NRF2-Keap1 FP Assay (Keap1 Kelch fluorescence polarization)
# setup conditions: 20 nM Keap1 (321-609), 8 nM Tamra labeled peptide
pIC50: −log10 of the molar value.

{"columns": ["compound", "pIC50"],
 "data": [
  ["CC[C@@H]1CN(Cc2cccc(-c3cccc(-n4ncc(C(=O)O)c4[C@@H]4C[C@H]4c4cn(C)nn4)c3)c2)S(=O)(=O)c2ccccc2O1", "7.00 to 8.00"],
  ["CC(C)CC1CCCCN1C(=O)c1cccc(-c2cccc(-n3ncc(C(=O)O)c3C3CC3)c2)c1F (stereo not shown)", "7.00 to 8.00"],
  ["Cn1cc([C@@H]2C[C@H]2c2c(C(=O)O)cnn2-c2cccc(-c3cccc(CN4CCOc5ccccc5C4)c3)c2)nn1 (racemic)", "7.00 to 8.00"],
  ["CCCC1CCCCN1C(=O)c1cccc(-c2cccc(-n3ncc(C(=O)O)c3C3CC3)c2)c1F (stereo in doubt) [Example 54d]", "7.00 to 8.00"],
  ["CCOC(c1cccc(-c2cccc(-n3ncc(C(=O)O)c3C3CC3c3cn(C)nn3)c2)c1)C(C)C (stereo not shown)", "7.00 to 8.00"],
  ["CC1CCC(C)N(C(=O)c2cccc(-c3cccc(-n4ncc(C(=O)O)c4C4CC4)c3)c2F)C1 (stereo not shown)", "7.00 to 8.00"],
  ["Cn1cc([C@@H]2C[C@H]2c2c(C(=O)O)cnn2-c2cccc(-c3cncc(OCC4CCCCC4)c3)c2)nn1 (racemic)", "6.00 to 7.00"],
  ["C[C@H](Oc1cccc(-c2cccc(-n3ncc(C(=O)OCCN4CCOCC4)c3[C@@H]3C[C@H]3c3cn(C)nn3)c2)c1)C1CCCCC1", "< 5.00"],
  ["CC(C)CN(C)C(=O)c1cccc(-c2cccc(-n3ncc(C(=O)O)c3C3CC3)c2)c1F", "6.00 to 7.00"],
  ["Cn1cc(CCCCOc2cccc(-c3cccc(-n4ncc(C(=O)O)c4C4CC4)c3)c2)nn1", "5.00 to 6.00"],
  ["CCC1CCC(COc2cccc(-c3cccc(-n4ncc(C(=O)O)c4[C@@H]4C[C@H]4c4cn(C)nn4)c3)c2)CC1 (mixture of isomers)", "6.00 to 7.00"],
  ["Cn1cc([C@@H]2C[C@H]2c2c(C(=O)O)cnn2-c2cccc(-c3cccc(OCC4CCCSC4)c3)c2)nn1 (mixture of isomers)", "7.00 to 8.00"],
  ["CC[C@@H]1c2ccccc2OC(C)(C)CN1Cc1cccc(-c2cccc(-n3ncc(C(=O)O)c3[C@@H]3C[C@H]3c3cn(C)nn3)c2)c1 (single isomer, unassigned; isomer 2)", "7.00 to 8.00"],
  ["CCC[C@@H]1CCCCN1C(=O)c1cccc(-c2cccc(-n3ncc(C(=O)O)c3[C@@H]3C[C@H]3c3cn(C)nn3)c2)c1 [Example 51h]", "7.00 to 8.00"],
  ["CC(COc1cccc(-c2cccc(-n3ncc(C(=O)O)c3C3CC3c3cn(C)nn3)c2)c1)C1CCCCC1 (stereo not shown)", "7.00 to 8.00"],
  ["C[C@H](Oc1cccc(-c2cccc(-n3ncc(C(=O)O)c3[C@@H]3C[C@H]3c3cn(C4CCN(C(=O)OC(C)(C)C)CC4)nn3)c2)c1)C1CCCCC1 (racemic)", "6.00 to 7.00"],
  ["CC(C)n1cc([C@@H]2C[C@H]2c2c(C(=O)O)cnn2-c2cccc(-c3cccc(O[C@@H](C)C4CCCCC4)c3)c2)nn1 (racemic)", "7.00 to 8.00"],
  ["CC(Oc1cccc(-c2cccc(-n3ncc(C(=O)O)c3[C@H]3C[C@@H]3c3cn(C)nn3)c2)c1)C1CCCCC1 (single isomer, unassigned) [Example 191]", "6.00 to 7.00"],
  ["CC(Oc1cccc(-c2cccc(-n3ncc(C(=O)O)c3[C@H]3C[C@@H]3c3cn(C)nn3)c2)c1)[C@H]1CC[C@H](C(F)(F)F)CC1 (mixture of isomers)", "6.00 to 7.00"],
  ["CC(Cc1cccc(-c2cccc(-n3ncc(C(=O)O)c3[C@@H]3C[C@H]3c3cn(C)nn3)c2)c1)C1CCCCC1 (single isomer, unassigned) [Example 116f]", "7.00 to 8.00"],
  ["C[C@H](Oc1cccc(-c2cccc(-n3ncc(C(=O)O)c3[C@@H]3C[C@H]3c3cn(Cc4ccccc4)nn3)c2)c1)C1CCCCC1 (racemic)", "6.00 to 7.00"],
  ["CC[C@H]1c2ccccc2OCCN1Cc1cccc(-c2cccc(-n3ncc(C(=O)O)c3[C@@H]3C[C@H]3c3cn(C)nn3)c2)c1 (single isomer, unassigned; isomer 1) [Example 122]", "7.00 to 8.00"],
  ["C[C@H](Oc1cccc(-c2cccc(-n3ncc(C(=O)O)c3[C@@H]3C[C@H]3c3c[nH]nn3)c2)c1)C1CCCCC1", "7.00 to 8.00"],
  ["C[C@H](Oc1cccc(-c2cccc(-n3ncc(C(=O)O)c3[C@@H]3C[C@H]3c3cn(C4CCNCC4)nn3)c2)c1)C1CCCCC1 (racemic)", "7.00 to 8.00"],
  ["CN(C(=O)c1cccc(-c2cccc(-n3ncc(C(=O)O)c3C3CC3)c2)c1F)C1CCCC1", "6.00 to 7.00"]
]}

====

# system: Keap1 Kelch domain (321-609) / TAMRA-labeled 16mer NRF2 peptide (ETGE motif) (Homo sapiens, UniProt Q14145)
# Construct: the Kelch domain (321-609) of Keap1 is used
# protocol summary: NRF2-Keap1 FP Assay (Keap1 Kelch fluorescence polarization)
# setup conditions: 20 nM Keap1 (321-609), 8 nM Tamra labeled peptide
Listing of entries alongside the reported IC50.

{"columns": ["compound", "IC50"],
 "data": [
  ["CCCC1CCCCN1C(=O)c1cccc(-c2cccc(-n3ncc(C(=O)O)c3C3CC3c3cn(C)nn3)c2)c1 (stereo not drawn) [Example 42]", "10 to 100 nM"],
  ["CCC1COc2ccccc2CN1Cc1cccc(-c2cccc(-n3ncc(C(=O)O)c3[C@H]3C[C@@H]3c3cn(C)nn3)c2)c1 (mixture of isomers) [Example 118]", "10 to 100 nM"],
  ["COC1CCCCC1COc1cccc(-c2cccc(-n3ncc(C(=O)O)c3[C@H]3C[C@@H]3c3cn(C)nn3)c2)c1 (mixture of isomers) [Example 177]", "100 to 1000 nM"],
  ["Cn1cc([C@@H]2C[C@H]2c2c(C(=O)O)cnn2-c2cccc(-c3cccc(CCC4CCCCC4)c3)c2)nn1 (racemic) [Example 114]", "100 to 1000 nM"],
  ["O=C(O)c1cnn(-c2cccc(-c3cccc(C(=O)N4C5CCC4COC5)c3F)c2)c1C1CC1 [Example 32]", "100 to 1000 nM"],
  ["C[C@@H](Oc1cccc(-c2cccc(-n3ncc(C(=O)O)c3[C@@H]3C[C@H]3c3cn(C)nn3)c2)c1)C1CCCCCC1 [Example 74]", "10 to 100 nM"]
]}

====

# System: NQO1 specific enzyme activity in BEAS-2B cells (marker for NRF2 activation)
# protocol summary: BEAS-2B NQO1 MTT Assay
# Assay type: cell-based
# setup conditions: Homo sapiens, in two determinations (footnote ϕ), read-out: EC50 in two determinations
pEC50: −log10 of the molar value.
readout label: pEC50

{"columns": ["molecule", "readout label", "reported result"],
 "data": [
  ["CC[C@@H]1CN(Cc2cccc(-c3cccc(-n4ncc(C(=O)O)c4[C@@H]4C[C@H]4c4cn(C)nn4)c3)c2)S(=O)(=O)c2ccccc2O1 [Example 255]", "pEC50", "< 6.00"]
]}

====

# system: full length Keap1 protein / full length NRF2 protein (Homo sapiens)
# Construct: full length NRF2 protein and full length Keap1 protein (Keap1 exists a dimer) are used; His
# Sequence (Q14145 whole entry): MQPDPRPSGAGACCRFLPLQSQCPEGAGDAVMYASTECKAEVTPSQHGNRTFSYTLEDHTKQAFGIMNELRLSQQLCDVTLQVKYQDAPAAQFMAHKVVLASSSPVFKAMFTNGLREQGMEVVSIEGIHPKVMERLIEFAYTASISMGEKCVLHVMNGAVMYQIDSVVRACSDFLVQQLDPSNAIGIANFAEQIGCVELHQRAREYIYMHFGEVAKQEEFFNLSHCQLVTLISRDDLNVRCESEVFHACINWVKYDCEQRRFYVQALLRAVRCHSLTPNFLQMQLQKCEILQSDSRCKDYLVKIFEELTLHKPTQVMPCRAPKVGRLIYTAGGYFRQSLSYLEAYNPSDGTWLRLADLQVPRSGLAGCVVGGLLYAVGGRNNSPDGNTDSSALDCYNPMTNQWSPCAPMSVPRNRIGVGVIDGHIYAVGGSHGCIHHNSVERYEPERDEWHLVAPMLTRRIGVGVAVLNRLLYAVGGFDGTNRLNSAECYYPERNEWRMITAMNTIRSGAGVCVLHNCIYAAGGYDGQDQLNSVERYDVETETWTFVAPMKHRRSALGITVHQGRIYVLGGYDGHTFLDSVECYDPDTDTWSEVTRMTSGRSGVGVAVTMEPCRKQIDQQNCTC
# protocol summary: NRF2-Keap1 TR-FRET Assay
# Assay type: binding
# setup conditions: 25 nM Keap1-FlagHis and 50 nM biotin-NRF2 added
Reported IC50 is given for each of the following compounds.

{"columns": ["compound", "IC50"],
 "data": [
  ["CCC[C@@H]1CCCCN1C(=O)c1cccc(-c2cccc(-n3ncc(C(=O)O)c3[C@H]3C[C@@H]3c3cn(C)nn3)c2)c1 [Example 51g]", "1000 to 10000 nM"],
  ["O=C(O)c1cnn(-c2cccc(-c3cccc(C(=O)N4CCCC5(CCCOC5)C4)c3F)c2)c1C1CC1 (stereo not shown)", "100 to 1000 nM"],
  ["Cn1cc(C2CC2c2c(C(=O)O)cnn2-c2cccc(-c3cccc(OCc4cccc(F)c4)c3)c2)nn1 (stereo not shown)", "100 to 1000 nM"],
  ["CC1CCCN(C(=O)c2cccc(-c3cccc(-n4ncc(C(=O)O)c4C4CC4)c3)c2F)CC1 (stereo not shown)", "100 to 1000 nM"],
  ["O=C(O)c1cnn(-c2cccc(-c3cccc(C(=O)N4CCCCCC4)c3F)c2)c1C1CC1", "1000 to 10000 nM"],
  ["CC(Oc1cccc(-c2cccc(-n3ncc(C(=O)O)c3C3CC3c3cn(C)nn3)c2)c1)C1CC1 (stereo not shown)", "100 to 1000 nM"],
  ["CCC[C@@H]1CCCCN1C(=O)c1cccc(-c2cc(C)cc(-n3ncc(C(=O)O)c3[C@H]3C[C@@H]3c3cn(C)nn3)c2)c1 (single isomer, unassigned)", "100 to 1000 nM"]
]}
